Exercise: state measured viability, T/C for each of the compounds provided.
Test system: 377384-186-R-J1-PDC complex spheroid viability
Test: Anticancer human tumor 377384-186-R-J1-PDC patient-derived pancreatic carcinoma cell line growth inhibition [CLK]
Conditions: second compound 10 µM; first compound 0.1 µM; hits give low values
Source text: A high-throughput screen of multi-cell type tumor spheroids was designed to identify active combinations of […] and targeted small molecules. Complex spheroids include a stromal component modeled by human endothelial cells (HUVEC) and fibroblasts modeled by human mesenchymal stem cells (MSCs). […] Compounds. […] If the clinical Cmax for an agent had not been determined, the highest concentration tested was 10 microM. […]
Numbers only here, please. The scale is %.

viability, T/C for O=C(c1cc(Cc2n[nH]c(=O)c3ccccc23)ccc1F)N1CCN(C(=O)C2CC2)CC1 + CN1CCN(c2cc(C(=O)Nc3cc4cc(-c5cnn(C)c5)ccc4cn3)ccn2)CC1 is 1.09

// viability, T/C value for O=C(c1cc(Cc2n[nH]c(=O)c3ccccc23)ccc1F)N1CCN(C(=O)C2CC2)CC1 + CNC(=O)c1ccc(Nc2nc(OC3CCCC3)c3c(-c4ccc5nc(C)oc5c4)c[nH]c3n2)c(OC)c1 : 19.8

// viability, T/C lookup, compound = C=C(F)C(=O)N1CCN(c2nc(OCC3CCCN3C)nc3c2CCN(c2cccc4cccc(Cl)c24)C3)CC1CC#N (centres undefined) + CNC(=O)c1ccc(Nc2nc(OC3CCCC3)c3c(-c4ccc5nc(C)oc5c4)c[nH]c3n2)c(OC)c1 , result: 21.4

Recorded viability, T/C (compound C#Cc1c(F)ccc2cc(O)cc(-c3ncc4c(N5CC6CCC(C5)N6)nc(OCC56CCCN5CC(F)C6)nc4c3F)c12 (centres undefined) + CN1CCN(c2cc(C(=O)Nc3cc4cc(-c5cnn(C)c5)ccc4cn3)ccn2)CC1 ): 0.21

---

Tested on: 377384-186-R-J1-PDC complex spheroid viability
Test: Anticancer human tumor 377384-186-R-J1-PDC cell line growth inhibition [CLK];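 also: luminescence signal used as a stand-in for viable cells; spheroids exposed to agents for 7 days before reading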
Conditions: second compound 0.1 µM; first compound 0.316 µM; hits give low values
Excerpt: A high-throughput screen of multi-cell type tumor spheroids was designed to identify active combinations of […] and targeted small molecules. Complex spheroids include a stromal component modeled by human endothelial cells (HUVEC) and fibroblasts modeled by human mesenchymal stem cells (MSCs). […] Compounds. […] If the clinical Cmax for an agent had not been determined, the highest concentration tested was 10 microM. […]
observation-type: viability, T/C (%)
// note: answer is a bare numeric in %

Memo: CC(CO)NC(=O)c1cc(-c2ccc(Cl)cc2)nn(-c2cnn(C)c2)c1=O (stereo unspecified) + CN1CCN(c2cc(C(=O)Nc3cc4cc(-c5cnn(C)c5)ccc4cn3)ccn2)CC1 , reported viability, T/C: 85.5

Looking up CC(Nc1ccc2c(c1)OCCn1cc(N3C(=O)OCC3C(F)F)nc1-2)C(N)=O (stereo unspecified) + CN1CCN(c2cc(C(=O)Nc3cc4cc(-c5cnn(C)c5)ccc4cn3)ccn2)CC1 , I see its viability, T/C listed as 50.6

Record Nc1ccccc1NC(=O)c1ccc(CNC(=O)OCc2cccnc2)cc1 + CN1CCN(c2cc(C(=O)Nc3cc4cc(-c5cnn(C)c5)ccc4cn3)ccn2)CC1 . Reported viability, T/C: 90.8

// C#Cc1c(F)ccc2cc(O)cc(-c3ncc4c(N5CC6CCC(C5)N6)nc(OCC56CCCN5CC(F)C6)nc4c3F)c12 (stereo unspecified) + CNC(=O)c1ccc(Nc2nc(OC3CCCC3)c3c(-c4ccc5nc(C)oc5c4)c[nH]c3n2)c(OC)c1 : viability, T/C value = 5.17

# molecule CC(Nc1ccc2c(c1)OCCn1cc(N3C(=O)OCC3C(F)F)nc1-2)C(N)=O (stereo unspecified) + CNC(=O)c1ccc(Nc2nc(OC3CCCC3)c3c(-c4ccc5nc(C)oc5c4)c[nH]c3n2)c(OC)c1 ; its viability, T/C = 41.7

Short answer for O=c1[nH]cc(F)c(=O)[nH]1 + CN1CCN(c2cc(C(=O)Nc3cc4cc(-c5cnn(C)c5)ccc4cn3)ccn2)CC1 : viability, T/C was 92.2

Sample COC1C=CCC(C)C(C)S(=O)(=O)NC(=O)c2ccc3c(c2)N(CC2CCC21)CC1(CCCc2cc(Cl)ccc21)CO3 (stereo unspecified) + CN1CCN(c2cc(C(=O)Nc3cc4cc(-c5cnn(C)c5)ccc4cn3)ccn2)CC1 ; viability, T/C observed: 98

Consider CCN1CCN(Cc2ccc(Nc3ncc(F)c(-c4cc(F)c5nc(C)n(C(C)C)c5c4)n3)nc2)CC1 + CNC(=O)c1ccc(Nc2nc(OC3CCCC3)c3c(-c4ccc5nc(C)oc5c4)c[nH]c3n2)c(OC)c1 . Its measured viability, T/C is 34.4

The recorded viability, T/C for CCc1c2c(nc3ccc(O)cc13)-c1cc3c(c(=O)n1C2)COC(=O)[C@]3(O)CC + CN1CCN(c2cc(C(=O)Nc3cc4cc(-c5cnn(C)c5)ccc4cn3)ccn2)CC1 is 1.47

Measured viability, T/C of CC1COCCN1c1cc(C2(S(C)(=N)=O)CC2)nc(-c2ccnc3[nH]ccc23)n1 (stereo unspecified) + CNC(=O)c1ccc(Nc2nc(OC3CCCC3)c3c(-c4ccc5nc(C)oc5c4)c[nH]c3n2)c(OC)c1 : 52

COc1ccc([C@@H](O)c2cc(-c3ncnc4cc(N5CCOCC5)ccc34)c(F)cc2Cl)nn1 + CNC(=O)c1ccc(Nc2nc(OC3CCCC3)c3c(-c4ccc5nc(C)oc5c4)c[nH]c3n2)c(OC)c1 yielded viability, T/C of 40.5

The reported value for O=c1[nH]cc(F)c(=O)[nH]1 + CNC(=O)c1ccc(Nc2nc(OC3CCCC3)c3c(-c4ccc5nc(C)oc5c4)c[nH]c3n2)c(OC)c1 in terms of viability, T/C is 45.4

The molecule COC1C=CCC(C)C(C)S(=O)(=O)NC(=O)c2ccc3c(c2)N(CC2CCC21)CC1(CCCc2cc(Cl)ccc21)CO3 (stereo unspecified) + CNC(=O)c1ccc(Nc2nc(OC3CCCC3)c3c(-c4ccc5nc(C)oc5c4)c[nH]c3n2)c(OC)c1 showed viability, T/C equal to 56

// CCCS(=O)(=O)Nc1ccc(F)c(C(=O)c2c[nH]c3ncc(-c4ccc(Cl)cc4)cc23)c1F + CN1CCN(c2cc(C(=O)Nc3cc4cc(-c5cnn(C)c5)ccc4cn3)ccn2)CC1 : viability, T/C value = 135

Recorded result, Nc1ccn(C2OC(CO)C(O)C2(F)F)c(=O)n1 (stereo unspecified) + CNC(=O)c1ccc(Nc2nc(OC3CCCC3)c3c(-c4ccc5nc(C)oc5c4)c[nH]c3n2)c(OC)c1 , viability, T/C: 2.85

The molecule listed as COc1c(OCCCN2CCOCC2)ccc2c3n(c(=NC(=O)c4cnc(N)nc4)nc12)CCN3 + CN1CCN(c2cc(C(=O)Nc3cc4cc(-c5cnn(C)c5)ccc4cn3)ccn2)CC1 shows viability, T/C equal to 25.3

---

Test system: 377384-186-R-J1-PDC complex spheroid viability
Assay: Anticancer human tumor 377384-186-R-J1-PDC cell line growth inhibition [CLK];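 also: luminescence signal used as a stand-in for viable cells; spheroids exposed to agents for 7 days before reading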
Settings: second compound 3.16 µM; first compound 1 µM; hits give low values
Under this convention, fulfilled denotes viability, T/C strictly below 10% and not fulfilled denotes viability, T/C at or above 10%.

Q: A record lists CC(CO)NC(=O)c1cc(-c2ccc(Cl)cc2)nn(-c2cnn(C)c2)c1=O (centres undefined) + CN1CCN(c2cc(C(=O)Nc3cc4cc(-c5cnn(C)c5)ccc4cn3)ccn2)CC1 . Is its viability, T/C below 10%?
Ans: fulfilled

Q: Criterion: viability, T/C strictly below 10%. Is it met by CCCS(=O)(=O)Nc1ccc(F)c(C(=O)c2c[nH]c3ncc(-c4ccc(Cl)cc4)cc23)c1F + CNC(=O)c1ccc(Nc2nc(OC3CCCC3)c3c(-c4ccc5nc(C)oc5c4)c[nH]c3n2)c(OC)c1 ?
Ans: not fulfilled

Q: # TODO verify viability, T/C < 10% strictly for this compound: COc1ccc([C@@H](O)c2cc(-c3ncnc4cc(N5CCOCC5)ccc34)c(F)cc2Cl)nn1 + CNC(=O)c1ccc(Nc2nc(OC3CCCC3)c3c(-c4ccc5nc(C)oc5c4)c[nH]c3n2)c(OC)c1
Ans: not fulfilled

Q: Is viability, T/C strictly under 10% for the entry CCN1CCN(Cc2ccc(Nc3ncc(F)c(-c4cc(F)c5nc(C)n(C(C)C)c5c4)n3)nc2)CC1 + CN1CCN(c2cc(C(=O)Nc3cc4cc(-c5cnn(C)c5)ccc4cn3)ccn2)CC1 ?
Ans: fulfilled

Q: Item CCc1c2c(nc3ccc(O)cc13)-c1cc3c(c(=O)n1C2)COC(=O)[C@]3(O)CC + CNC(=O)c1ccc(Nc2nc(OC3CCCC3)c3c(-c4ccc5nc(C)oc5c4)c[nH]c3n2)c(OC)c1 : viability, T/C beneath 10%, strictly?
Ans: fulfilled

Q: Strictly below 10% in viability, T/C? CC(=O)O[C@H]1C(=O)[C@@]2(C)[C@H]([C@H](OC(=O)c3ccccc3)[C@]3(O)C[C@H](OC(=O)[C@H](O)[C@@H](NC(=O)c4ccccc4)c4ccccc4)C(C)=C1C3(C)C)[C@]1(OC(C)=O)CO[C@@H]1C[C@@H]2O + CNC(=O)c1ccc(Nc2nc(OC3CCCC3)c3c(-c4ccc5nc(C)oc5c4)c[nH]c3n2)c(OC)c1
Ans: not fulfilled

Q: Determine if COc1c(OCCCN2CCOCC2)ccc2c3n(c(=NC(=O)c4cnc(N)nc4)nc12)CCN3 + CN1CCN(c2cc(C(=O)Nc3cc4cc(-c5cnn(C)c5)ccc4cn3)ccn2)CC1 shows viability, T/C strictly lower than 10%.
Ans: fulfilled

Q: Quick check: does COC1C=CCC(C)C(C)S(=O)(=O)NC(=O)c2ccc3c(c2)N(CC2CCC21)CC1(CCCc2cc(Cl)ccc21)CO3 (centres undefined) + CNC(=O)c1ccc(Nc2nc(OC3CCCC3)c3c(-c4ccc5nc(C)oc5c4)c[nH]c3n2)c(OC)c1 have viability, T/C under 10%?
Ans: not fulfilled
